This listing pairs compounds with measured IC50.
- experimental.target: Tyrosine-protein kinase ABL1 (Homo sapiens, UniProt P00519, T315I)
- assay.explanation: Inhibition of cABL T315I mutant by Caliper mobility shift assay

> print(dat)
                                smiles.data   result
1  COc1cc(O)c2c(c1)CCC[C@H](O)CC(=O)/C=C\C[C@H](C)OC2=O  > 10 µM

Per the record, COc1cc(O)c2c(c1)CCC[C@H](O)[C@H](O)C(=O)/C=C\C[C@H](C)OC2=O has IC50 of > 10 µM

---

Recorded IC50 values for a group of molecules are listed next.
- experimental.target: Dual specificity mitogen-activated protein kinase kinase 2 (Homo sapiens)
- Sequence (P36507 whole entry): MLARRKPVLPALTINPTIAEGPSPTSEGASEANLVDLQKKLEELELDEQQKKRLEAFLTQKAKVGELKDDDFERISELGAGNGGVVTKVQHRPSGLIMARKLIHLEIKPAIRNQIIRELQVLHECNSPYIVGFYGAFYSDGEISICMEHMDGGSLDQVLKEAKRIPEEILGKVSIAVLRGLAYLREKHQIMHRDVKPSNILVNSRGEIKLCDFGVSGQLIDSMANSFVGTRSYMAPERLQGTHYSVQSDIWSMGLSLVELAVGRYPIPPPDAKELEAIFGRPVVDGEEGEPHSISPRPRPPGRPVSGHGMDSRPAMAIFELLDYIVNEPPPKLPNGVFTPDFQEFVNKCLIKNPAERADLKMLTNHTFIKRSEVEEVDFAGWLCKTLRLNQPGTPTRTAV
- assay.explanation: Inhibition of MEK2 by TR-FRET based LanthaScreen assay
# unit: µM | format: bare number

> print(dat)
                                smiles.data  quantity.name  readout.number
1  COc1cc(O)c2c(c1)CCCCCC(=O)/C=C\C[C@H](C)OC2=O           IC50            6.84

Next:
Quick note, IC50 for COc1cc(O)c2c(c1)CCC[C@H](O)[C@H](O)C(=O)/C=C\C[C@H](C)OC2=O landed at 0.015

---

- experimental.target: UniProt:P06213
- Sequence (P06213 28-758 limits assumed): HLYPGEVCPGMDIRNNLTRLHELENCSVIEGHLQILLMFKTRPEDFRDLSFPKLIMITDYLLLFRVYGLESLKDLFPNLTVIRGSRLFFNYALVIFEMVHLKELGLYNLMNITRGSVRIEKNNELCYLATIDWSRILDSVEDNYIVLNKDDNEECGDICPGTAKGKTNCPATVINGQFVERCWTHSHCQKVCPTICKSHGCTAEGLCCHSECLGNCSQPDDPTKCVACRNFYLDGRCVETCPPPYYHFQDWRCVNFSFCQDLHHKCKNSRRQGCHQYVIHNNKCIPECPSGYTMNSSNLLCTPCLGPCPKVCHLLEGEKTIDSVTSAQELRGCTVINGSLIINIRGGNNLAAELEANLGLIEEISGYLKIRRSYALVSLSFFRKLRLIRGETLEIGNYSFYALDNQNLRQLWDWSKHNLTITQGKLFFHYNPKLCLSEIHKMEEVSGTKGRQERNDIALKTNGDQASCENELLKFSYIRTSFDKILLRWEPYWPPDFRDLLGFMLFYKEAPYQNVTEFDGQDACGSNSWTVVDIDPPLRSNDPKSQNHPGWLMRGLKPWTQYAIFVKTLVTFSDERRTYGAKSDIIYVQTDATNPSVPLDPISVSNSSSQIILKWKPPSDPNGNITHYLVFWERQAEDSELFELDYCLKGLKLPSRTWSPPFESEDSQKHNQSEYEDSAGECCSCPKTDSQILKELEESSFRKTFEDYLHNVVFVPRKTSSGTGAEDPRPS
- Sequence (P06213 763-1382 limits assumed): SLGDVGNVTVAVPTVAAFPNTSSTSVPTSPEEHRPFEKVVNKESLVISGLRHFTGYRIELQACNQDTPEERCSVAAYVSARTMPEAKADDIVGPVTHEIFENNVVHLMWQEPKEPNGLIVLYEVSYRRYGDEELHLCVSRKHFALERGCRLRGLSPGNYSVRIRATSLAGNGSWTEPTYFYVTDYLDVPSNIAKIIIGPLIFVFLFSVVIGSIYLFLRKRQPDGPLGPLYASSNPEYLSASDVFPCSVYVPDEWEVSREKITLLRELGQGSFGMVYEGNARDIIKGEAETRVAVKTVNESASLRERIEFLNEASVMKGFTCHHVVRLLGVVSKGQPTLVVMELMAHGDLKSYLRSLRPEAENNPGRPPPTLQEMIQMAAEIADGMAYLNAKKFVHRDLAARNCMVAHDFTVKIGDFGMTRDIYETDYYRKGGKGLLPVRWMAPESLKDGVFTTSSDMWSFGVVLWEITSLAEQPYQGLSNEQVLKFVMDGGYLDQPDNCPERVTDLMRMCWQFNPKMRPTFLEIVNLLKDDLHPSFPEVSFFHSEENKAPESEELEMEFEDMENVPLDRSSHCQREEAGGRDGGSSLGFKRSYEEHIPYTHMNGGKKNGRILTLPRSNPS
pIC50: −log10 of the molar value.
quantity.name: pIC50

> print(dat)
                                smiles.data  quantity.name  result
1  COc1cc(O)c2c(c1)CCC[C@H](O)CC(=O)/C=C\C[C@H](C)OC2=O          pIC50  < 5.00

As a next step, examine the molecule that follows.
Kindly note: UniProt:P06213, COc1cc(O)c2c(c1)CCC[C@H](O)[C@H](O)C(=O)/C=C\C[C@H](C)OC2=O , pIC50 value reported: < 5.00

---

Measured IC50 (UniProt P29597)
Sequence (P29597 whole entry): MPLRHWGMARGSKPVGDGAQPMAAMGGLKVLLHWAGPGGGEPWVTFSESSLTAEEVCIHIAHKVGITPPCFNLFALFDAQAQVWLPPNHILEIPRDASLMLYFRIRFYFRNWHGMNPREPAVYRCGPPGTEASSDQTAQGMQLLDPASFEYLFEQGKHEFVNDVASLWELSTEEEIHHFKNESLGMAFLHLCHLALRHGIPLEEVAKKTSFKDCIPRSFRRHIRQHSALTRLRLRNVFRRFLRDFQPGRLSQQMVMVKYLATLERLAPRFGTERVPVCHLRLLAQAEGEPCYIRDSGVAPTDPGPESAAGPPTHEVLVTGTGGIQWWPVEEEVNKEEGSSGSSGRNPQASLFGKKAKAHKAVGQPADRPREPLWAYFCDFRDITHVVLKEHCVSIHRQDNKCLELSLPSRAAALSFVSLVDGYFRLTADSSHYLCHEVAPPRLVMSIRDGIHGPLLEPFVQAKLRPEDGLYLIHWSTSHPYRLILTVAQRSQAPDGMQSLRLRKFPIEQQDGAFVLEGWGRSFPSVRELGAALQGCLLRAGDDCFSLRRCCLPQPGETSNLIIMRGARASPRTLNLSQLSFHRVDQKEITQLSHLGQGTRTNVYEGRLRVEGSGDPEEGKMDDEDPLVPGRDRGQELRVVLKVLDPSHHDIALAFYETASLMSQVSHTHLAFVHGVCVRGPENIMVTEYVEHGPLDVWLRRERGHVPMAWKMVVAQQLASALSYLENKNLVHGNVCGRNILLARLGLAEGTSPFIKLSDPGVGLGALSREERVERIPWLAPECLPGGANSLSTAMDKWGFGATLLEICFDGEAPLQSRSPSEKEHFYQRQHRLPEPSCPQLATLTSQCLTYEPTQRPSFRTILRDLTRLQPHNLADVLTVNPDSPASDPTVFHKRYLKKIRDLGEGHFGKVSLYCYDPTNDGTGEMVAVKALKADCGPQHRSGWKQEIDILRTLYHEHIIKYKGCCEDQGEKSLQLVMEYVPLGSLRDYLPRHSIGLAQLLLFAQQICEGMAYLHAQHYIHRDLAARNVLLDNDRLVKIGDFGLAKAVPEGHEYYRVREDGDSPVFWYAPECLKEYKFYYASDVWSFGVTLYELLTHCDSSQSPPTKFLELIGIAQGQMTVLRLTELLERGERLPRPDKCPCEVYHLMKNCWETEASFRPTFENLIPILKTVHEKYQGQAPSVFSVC
Just the number in µM, nothing appended.

> print(dat)
                                smiles.data  readout.number
1  COc1cc(O)c2c(c1)CCC[C@H](O)[C@H](O)C(=O)/C=C\C[C@H](C)OC2=O             4.1

Noted IC50 for COc1cc(O)c2c(c1)CCC[C@H](O)CC(=O)/C=C\C[C@H](C)OC2=O , tested on UniProt P29597: 4.4

---

- experimental.target: Ephrin type-A receptor 4 (Homo sapiens, UniProt P54764)
- Sequence (P54764 whole entry): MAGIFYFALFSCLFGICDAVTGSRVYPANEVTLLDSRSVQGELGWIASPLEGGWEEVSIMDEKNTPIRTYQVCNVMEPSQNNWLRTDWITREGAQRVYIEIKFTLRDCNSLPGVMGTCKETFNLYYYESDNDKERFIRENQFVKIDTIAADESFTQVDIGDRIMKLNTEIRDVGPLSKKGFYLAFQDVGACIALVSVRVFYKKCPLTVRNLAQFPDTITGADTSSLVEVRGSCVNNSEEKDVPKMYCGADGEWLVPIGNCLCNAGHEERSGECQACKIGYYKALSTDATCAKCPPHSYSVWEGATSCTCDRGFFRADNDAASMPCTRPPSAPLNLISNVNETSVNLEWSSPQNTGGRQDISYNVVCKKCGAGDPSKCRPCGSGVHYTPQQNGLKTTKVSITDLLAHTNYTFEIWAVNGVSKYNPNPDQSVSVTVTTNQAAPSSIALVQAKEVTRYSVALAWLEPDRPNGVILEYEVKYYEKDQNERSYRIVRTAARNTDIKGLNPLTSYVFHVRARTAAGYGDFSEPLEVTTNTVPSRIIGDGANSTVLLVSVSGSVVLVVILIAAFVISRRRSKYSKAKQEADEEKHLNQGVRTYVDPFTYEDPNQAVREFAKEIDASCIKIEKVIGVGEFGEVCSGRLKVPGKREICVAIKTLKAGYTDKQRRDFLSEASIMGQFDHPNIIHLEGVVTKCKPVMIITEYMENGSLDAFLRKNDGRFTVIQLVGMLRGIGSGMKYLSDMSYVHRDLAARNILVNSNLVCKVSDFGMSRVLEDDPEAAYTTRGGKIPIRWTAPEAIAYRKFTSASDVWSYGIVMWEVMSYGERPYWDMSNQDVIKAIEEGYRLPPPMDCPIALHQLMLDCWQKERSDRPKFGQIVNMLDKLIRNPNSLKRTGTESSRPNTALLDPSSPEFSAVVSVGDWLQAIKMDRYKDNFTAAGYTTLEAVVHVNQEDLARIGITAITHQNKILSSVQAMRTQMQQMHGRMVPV
pIC50: −log10 of the molar value.
quantity.name: pIC50

> print(dat)
                                smiles.data                       experimental.target  result
1  COc1cc(O)c2c(c1)CCC[C@H](O)[C@H](O)C(=O)/C=C\C[C@H](C)OC2=O  Ephrin type-A receptor 4 (Homo sapiens, UniProt P54764)  < 5.00

Now for the molecule whose pIC50 we want.
Looking up COc1cc(O)c2c(c1)CCC[C@H](O)CC(=O)/C=C\C[C@H](C)OC2=O , I see its pIC50 listed as < 5.00

---

- experimental.target: Ephrin type-B receptor 4 (Homo sapiens, UniProt P54760)
- Sequence (P54760 whole entry): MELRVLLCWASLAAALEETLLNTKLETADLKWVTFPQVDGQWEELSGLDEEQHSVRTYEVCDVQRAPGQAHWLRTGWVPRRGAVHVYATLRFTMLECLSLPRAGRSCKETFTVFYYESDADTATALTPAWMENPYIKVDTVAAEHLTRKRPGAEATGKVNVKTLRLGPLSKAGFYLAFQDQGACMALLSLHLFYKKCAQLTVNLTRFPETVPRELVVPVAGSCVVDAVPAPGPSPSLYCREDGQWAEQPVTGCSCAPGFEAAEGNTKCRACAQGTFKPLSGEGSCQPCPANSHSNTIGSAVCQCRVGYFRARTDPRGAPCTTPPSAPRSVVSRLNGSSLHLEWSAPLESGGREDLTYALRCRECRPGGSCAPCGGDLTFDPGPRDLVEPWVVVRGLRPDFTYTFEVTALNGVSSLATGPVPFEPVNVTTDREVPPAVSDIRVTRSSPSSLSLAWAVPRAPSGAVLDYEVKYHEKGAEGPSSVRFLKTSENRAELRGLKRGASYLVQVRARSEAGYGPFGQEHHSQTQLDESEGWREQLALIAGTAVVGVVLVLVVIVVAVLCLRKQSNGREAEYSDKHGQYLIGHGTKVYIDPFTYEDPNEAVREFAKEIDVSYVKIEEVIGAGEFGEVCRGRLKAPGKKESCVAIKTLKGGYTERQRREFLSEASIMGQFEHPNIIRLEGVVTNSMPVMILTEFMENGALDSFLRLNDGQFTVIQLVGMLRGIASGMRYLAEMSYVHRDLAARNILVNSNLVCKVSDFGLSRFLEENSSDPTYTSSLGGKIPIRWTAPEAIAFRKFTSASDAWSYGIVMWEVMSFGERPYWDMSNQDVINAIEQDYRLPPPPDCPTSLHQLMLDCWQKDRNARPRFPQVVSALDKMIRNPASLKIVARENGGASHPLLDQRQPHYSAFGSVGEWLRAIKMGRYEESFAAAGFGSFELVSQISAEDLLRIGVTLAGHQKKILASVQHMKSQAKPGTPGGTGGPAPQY
pIC50: −log10 of the molar value.
Overview of recorded pIC50 for various compounds

// below: answered compounds
> print(dat)
                                smiles.data                       experimental.target  result
1  COc1cc(O)c2c(c1)CCC[C@H](O)CC(=O)/C=C/C[C@H](C)OC2=O  Ephrin type-B receptor 4 (Homo sapiens, UniProt P54760)  < 5.00
2  COc1cc(O)c2c(c1)CCCCCC(=O)/C=C\C[C@H](C)OC2=O  Ephrin type-B receptor 4 (Homo sapiens, UniProt P54760)  < 5.00

Looking up COc1cc(O)c2c(c1)CCC[C@H](O)CC(=O)/C=C\C[C@H](C)OC2=O , I see its pIC50 listed as 5.13

Given item COc1cc(O)c2c(c1)CCC[C@H](O)[C@H](O)C(=O)/C=C\C[C@H](C)OC2=O , the value recorded as its pIC50 is < 5.00
